Catalogue of compounds with associated normalized growth
METHOD_SUMMARY: chemical genetic growth profiling, strain panel (AID 1159580);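 also: tested at 20 µM; growth read once vehicle control cultures reached saturation at 30 °C; 1 = growth at the plate median or of vehicle wells; lower values mean less growth of the strain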
REPORTED_CONDITIONS: S. cerevisiae deletion strains, growth OD, locus YDR001C, strain nth1, stronger effect = lower value
Among all 5,500 compounds or so, about 2,000 (36%) were called active. Another 18% or so got no clear call; they are omitted. The list shows a part of the results.
I only need the number, thanks.

Example cases with answers are listed next.
COc1cc2cc[n+]3cc4c(OC)c(OC)ccc4cc3c2cc1OC | 0.964
C[n+]1cc2c3c(ccc2c2ccc4cc5c(cc4c21)OCO5)OCO3 | 0.928
COc1cc2c(cc1OC)-c1cc3ccc(OC)c(OC)c3c[n+]1CC2 | 0.982
CCCCOc1cc(CC2CNC(=O)N2)ccc1OC (stereo unspecified) | 0.988
CCCN1C[C@H](CSC)C[C@@H]2c3cccc4[nH]cc(c34)C[C@H]21 | 1.01

Could you share which normalized growth value was measured for `Nc1nnc(-c2cccc(Cl)c2Cl)c(N)n1` ?
1.02

Source of measurements: PubChem BioAssay AID1159580
